// values below are reported glycan array binding signal (z-score)
# Experimental System: Gal6S(b1-3)GlcNAc6S
# Procedure Text: glycan array binding signal (z-score within array); higher = stronger binding
# Condition Label: glycan notation: IUPAC condensed, linker removed
Many of the other results were omitted from the sample, so the strongest signals are more common in it than they were.
Endpoint Name: glycan array binding signal (z-score)

Binder: Cohesin-hDECTIN-1 (Homo sapiens) (protein) LDITSHHHHHHDDLDAVRIKVDTVNAKPGDTVRIPVRFSGIPSKGIANCDFVYSYDPNVLEIIEIEPGDIIVDPNPDKSFDTAVYPDRKIIVFLFAEDSGTGAYAITKDGVFATIVAKVKEGAPNGLSVIKFVEVGGFANNDLVEQKTQFFDGGVNVGDTTEPATPTTPVTTPTTTDDLDAASSSPCPPNWIIYEKSCYLFSMSLNSWDGSKRQCWQLGSNLLKIDSSNELGFIVKQVSSQPDNSFWIGLSRPQTEVPWLWEDGSTFSSNLFQIRTTATQENPSPNCVWIHVSVIYDQLCSVPSYSICEKKFM
Observed Measurement: 1.2
//
Binder: Banana lectin (Musa acuminata) (protein) MNGAIKVGAWGGNGGSAFDMGPAYRIISVKIFSGDVVDAVDVTFTYYGKTETRHFGGSGGTPHEIVLQEGEYLVGMKGEFGNYHGVVVVGKLGFSTNKKSYGPFGNTGGTPFSLPIAAGKISGFFGRGGDFIDAIGVYLEP
Observed Measurement: -0.195
//
Binder: HPA (Helix pomatia), Q575S3 (protein) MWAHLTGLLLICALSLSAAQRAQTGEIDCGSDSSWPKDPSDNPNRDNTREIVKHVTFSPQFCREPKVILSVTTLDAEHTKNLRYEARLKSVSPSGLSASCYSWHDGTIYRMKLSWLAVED
Observed Measurement: -0.242
